Would you kindly list Dmax for each of these molecules?
Molecular target: BCL6 (Homo sapiens)
Construct: endogenous in cells; host or cells: T47D breast cancer epithelial cells
Assay: Immunofluorescence protocol for high content imaging of BCL6 (degradation) in T47D cells, 3 days compound treatment
Assay type: cell-based
Settings: T47D, read-out: Mean Dmax (%)** category

Consider the molecule CNC(=O)COc1cc2cc(Nc3nc(N4CCN(CC5CCC6(CC5)CN(c5cc(F)cc7c5CN(C5CCC(=O)NC5=O)C7=O)C6)CC4)ncc3Cl)ccc2n(C(C)C)c1=O (stereo not shown) [Compound 315] and give its measured Dmax.
50 to 70%

Next up: CNC(=O)COc1cc2cc(Nc3nc(N4CCC(O[C@H]5C[C@H](N6CC[C@H](c7ccc8c(c7F)CN([C@H]7CCC(=O)NC7=O)C8=O)C[C@@H]6C)C5)CC4)ncc3Cl)ccc2n(C(C)C)c1=O [Compound 293]
50 to 70%

Next up: CNC(=O)COc1cc2cc(Nc3nc(N4CCN(CC5CCC6(CC5)CN(c5ccc7c(c5OC)CN(C5CCC(=O)NC5=O)C7=O)C6)CC4)ncc3Cl)ccc2n(C(C)C)c1=O (stereo not shown) [Compound 331]
50 to 70%

Next up: CC(C)n1c(=O)c(OCC(=O)N(C)O)cc2cc(Nc3nc(N4CCC(O[C@H]5C[C@H](N6CCC(c7ccc8c(c7F)CN(C7CCC(=O)NC7=O)C8=O)CC6)C5)CC4)ncc3Cl)ccc21 (stereo partly shown) [Compound 265]
≥ 70%

Next up: CNC(=O)COc1cc2cc(Nc3nc(N4CCC(O[C@H]5C[C@H](N6CCN(c7ccc8c(c7Cl)C(=O)N(C7CCC(=O)NC7=O)C8=O)CC6)C5)CC4)ncc3Cl)ccc2n(C(C)C)c1=O (stereo partly shown) [Compound 412]
50 to 70%

Next up: [2H]C([2H])([2H])Oc1c(N2CC3(CCN(CC4CCN(c5ncc(Cl)c(Nc6ccc7c(c6)cc(OCC(=O)NC)c(=O)n7C(C)C)n5)CC4)CC3)C2(C)C)ccc2c1CN(C1CCC(=O)NC1=O)C2=O (stereo not shown) [Compound 227]
50 to 70%

Next up: CNC(=O)COc1cc2cc(Nc3nc(N4CCC(CN5CCN(c6ccc7c(c6F)CN(C6CCC(=O)NC6=O)C7=O)CC5)CC4)ncc3Cl)ccc2n(C(C)C)c1=O (stereo not shown) [Compound 322]
50 to 70%

Next up: CNC(=O)COc1cc2cc(Nc3nc(N4CCC(O[C@H]5C[C@H](N6CCCN(c7ccc8c(c7C)C(=O)N(C7CCC(=O)NC7=O)C8=O)CC6)C5)CC4)ncc3Cl)ccc2n(C(C)C)c1=O (stereo partly shown) [Compound 417]
≥ 70%

Next up: CNC(=O)COc1cc2cc(Nc3nc(N4CCN(CC5CCN(c6c(F)ccc7c6CN(C6CCC(=O)NC6=O)C7=O)CC5)CC4)ncc3Cl)ccc2n(C(C)C)c1=O (stereo not shown) [Compound 297]
50 to 70%

Next up: CNC(=O)COc1cc2cc(Nc3nc(N4CCC(O[C@H]5C[C@H](N6CC[C@H](c7ccc8c(c7F)CN([C@H]7CCC(=O)NC7=O)C8=O)C[C@H]6C)C5)CC4)ncc3Cl)ccc2n(C(C)C)c1=O [Compound 295]
≥ 70%

Origin of measurements: patent US11986532B2
